Study Target: GNA11
Experimental Parameters: ASO; note: test concentration or dose not given here
These antisense oligonucleotides have a phosphorothioate backbone; sugars and methylation of C are not fully specified.
Measured Endpoint: remaining target (mRNA or protein) (fraction of control)
Answers are plain numbers.

Construct Sequence: GGTCCGGAACAGGGCTTT
Study Target: GNA11
Readout Number: 0.74

I would be grateful if you could provide remaining target (mRNA or protein) (fraction of control) for each of the following entries.
1. GGTTCAGGTCCACGAACA
2. GACTCCTTCACCTCATCG
3. GATGAACTCCCGCGCCGC

RESULT:
0.29
0.85
0.48

====

Study Target: PDPK1
Experimental Parameters: ASO
These antisense oligonucleotides have a phosphorothioate backbone; sugars and methylation of C are not fully specified.
// returns F unless remaining target (mRNA or protein) (fraction of control) is strictly below 0.3, in which case T

Construct Sequence: AGCGTCCTCCTCCCCGAA
Category Label: F
//
Construct Sequence: GGTGTGCTTTAAGAGGTC
Category Label: F
//
Construct Sequence: GGACTTCTCCGTGAGCAG
Category Label: T
//
Construct Sequence: GTGCTGGACTCAGTCTGG
Category Label: F

QUERY: Say whether its remaining target (mRNA or protein) (fraction of control) is strictly beneath 0.3. Entry: `CAGCTTCTCGTCGTCCTG`
RESULT: T

QUERY: Bench note: check whether `GTCCCTGTGAATGATGCC` shows remaining target (mRNA or protein) (fraction of control) below 0.3
RESULT: T

QUERY: Is it true that remaining target (mRNA or protein) (fraction of control) reported for `GCATGCTGCAGGGAGCCG` is less than 0.3?
RESULT: F

QUERY: In the record for `GGAGGCTGGGCATGCTGC` , is remaining target (mRNA or protein) (fraction of control) less than 0.3?
RESULT: T

QUERY: Item `TTGCTGTTCCAAAATCTG` : remaining target (mRNA or protein) (fraction of control) beneath 0.3, strictly?
RESULT: F
